Source: patent US9862707B2

biological target: human TrkA receptor (Homo sapiens (Human)); experiment: TrkA functional activity, DiscoverX PathHunter assay; settings: U2OS cells expressing human TrkA-PK, Shc1-EA and p75NTR; compound 1 h, then NGF at ~80% of maximal response for 3 h; luminescence
Sequence (P04629 33-796): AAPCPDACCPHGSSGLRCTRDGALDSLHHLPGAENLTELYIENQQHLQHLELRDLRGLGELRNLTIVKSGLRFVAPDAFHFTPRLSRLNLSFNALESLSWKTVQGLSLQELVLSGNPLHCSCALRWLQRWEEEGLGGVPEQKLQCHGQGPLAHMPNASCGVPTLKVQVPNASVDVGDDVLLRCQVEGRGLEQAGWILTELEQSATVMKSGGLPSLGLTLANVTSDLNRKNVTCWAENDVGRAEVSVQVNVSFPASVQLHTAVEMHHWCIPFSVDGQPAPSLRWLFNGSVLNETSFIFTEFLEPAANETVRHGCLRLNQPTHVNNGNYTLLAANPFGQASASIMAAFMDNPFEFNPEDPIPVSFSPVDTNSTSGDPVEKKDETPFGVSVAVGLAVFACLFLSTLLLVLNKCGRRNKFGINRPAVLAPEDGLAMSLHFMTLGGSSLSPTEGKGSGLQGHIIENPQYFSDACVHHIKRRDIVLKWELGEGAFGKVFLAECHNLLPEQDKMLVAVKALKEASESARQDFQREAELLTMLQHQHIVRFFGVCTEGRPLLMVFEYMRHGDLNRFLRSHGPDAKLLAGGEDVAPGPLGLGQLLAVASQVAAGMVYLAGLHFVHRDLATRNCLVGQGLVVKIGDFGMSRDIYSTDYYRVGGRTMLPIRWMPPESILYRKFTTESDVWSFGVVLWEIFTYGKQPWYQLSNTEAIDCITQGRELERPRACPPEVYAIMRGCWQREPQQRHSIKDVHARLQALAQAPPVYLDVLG
Listed here are molecules together with their documented pIC50.
Convention used: pIC50 is expressed as -log10 of the molar concentration.

Please review the following examples before continuing.
# MOLECULE, pIC50
rows = [
    ("O=C(Nc1c2ccc(CCO)cc2nn1-c1ccccc1)c1cc(-c2ncccn2)c(C(F)(F)F)cc1F", 8.66),
    ("NC(=O)c1cnc2c(NC(=O)c3cc(-c4ccccn4)c(C(F)(F)F)cc3Cl)n(-c3ccccc3)nc2c1", 8.48),
    ("O=C(Nc1c2ccc(C(O)C(F)F)cc2nn1-c1ccccc1)c1cc(-c2ncccn2)c(C(F)(F)F)cc1F (single isomer, unassigned; isomer a) [Compound 56]", 8.55),
]

# ---- query molecule ----
// returns pIC50 for CC(O)c1cnc2c(NC(=O)c3cc(-c4cc[nH]n4)c(C(F)(F)F)cc3F)n(-c3ccccc3)nc2c1 (single isomer, unassigned) [Compound 22] with human TrkA receptor (Homo sapiens (Human)); value = 8.92
